molecular target: C-C chemokine receptor type 4 (Homo sapiens); assay: Antagonist activity at human CCR4 expressed in rat chem-5 cells assessed as inhibition of CCL22-induced calcium flux measured at 2.5 secs time interval for 45 secs by calcium 6 dye-based FLIPR assay
METRIC_NAME: IC50 (nM)

Study these solved cases before continuing.
>>> df
                                   molecule                              assay_system  recorded_value
0  Cc1nn([C@H](C)c2ccc(Cl)cc2Cl)c2nc(N3CC([C@H]4CCCN(CCNS(C)(=O)=O)C4)C3)cnc12  C-C chemokine receptor type 4 (Homo sapiens)              29
1  CC(=O)NCCN1CCC[C@H](C2CN(c3cnc4c(C)nn([C@H](C)c5ccc(Cl)cc5Cl)c4n3)C2)C1  C-C chemokine receptor type 4 (Homo sapiens)               6
2  Cc1nn([C@H](C)c2ccc(Cl)cc2Cl)c2nc(N3CC([C@H]4CCCN(CCC(N)=O)C4)C3)cnc12  C-C chemokine receptor type 4 (Homo sapiens)              42
3  C[C@H](c1ccc(Cl)cc1Cl)n1nc(C#N)c2ncc(N3CC([C@H]4CCCN(CCC(F)(F)F)C4)C3)nc21  C-C chemokine receptor type 4 (Homo sapiens)             370
4  Cc1nn([C@H](C)c2ccc(Cl)cc2Cl)c2nc(N3CC([C@H]4CCCN(CCNS(=O)(=O)C(C)C)C4)C3)cnc12  C-C chemokine receptor type 4 (Homo sapiens)              31

[P] Cc1nn([C@H](C)c2ccc(Cl)cc2Cl)c2nc(N3CC([C@H]4CCCN(CCNC(=O)C(C)C)C4)C3)cnc12
[Q] Cc1nn([C@H](C)c2ccc(Cl)cc2Cl)c2nc(N3CC(CN(C)C)C3)cnc12
[R] Cc1nn([C@H](C)c2ccc(Cl)cc2Cl)c2nc(N3CC(C4CCCN(CCS(N)(=O)=O)C4)C3)cnc12 (stereo partly drawn)
Let's sort these by IC50, smallest first. Go ahead? Rank them, then answer with their labels in that order. P, R, Q
(P: 18 nM, R: 121 nM, Q: 1370 nM)

====

Molecular target: C-C chemokine receptor type 4 (Homo sapiens, UniProt P51679)
Sequence (P51679 whole entry): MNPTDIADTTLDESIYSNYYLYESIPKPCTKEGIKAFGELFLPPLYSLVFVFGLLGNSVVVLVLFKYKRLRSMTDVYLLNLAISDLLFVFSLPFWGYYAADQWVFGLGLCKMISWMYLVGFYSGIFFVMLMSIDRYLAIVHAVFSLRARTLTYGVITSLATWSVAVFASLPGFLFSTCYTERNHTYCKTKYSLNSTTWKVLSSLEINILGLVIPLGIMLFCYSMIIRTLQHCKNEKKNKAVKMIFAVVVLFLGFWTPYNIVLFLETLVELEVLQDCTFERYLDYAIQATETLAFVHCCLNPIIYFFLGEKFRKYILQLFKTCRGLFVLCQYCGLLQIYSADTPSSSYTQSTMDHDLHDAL
Experiment: Antagonist activity at human CCR4 expressed in rat chem-5 cells assessed as inhibition of CCL22-induced calcium flux measured at 2.5 secs time interval for 45 secs by calcium 6 dye-based FLIPR assay
pIC50: −log10 of the molar value.
METRIC_NAME: pIC50

Study these solved cases before continuing.
                                   compound                              assay_system  recorded_value
0  Cc1nn([C@H](C)c2ccc(Cl)cc2Cl)c2nc(N3CC([C@H]4CCCN(CCS(C)(=O)=O)C4)C3)cnc12  C-C chemokine receptor type 4 (Homo sapiens, UniProt P51679)            7.11
1  CCOC(=O)CN1CCCC(C2CN(c3cnc4c(C)nn([C@H](C)c5ccc(Cl)cc5Cl)c4n3)C2)C1 (some centres undefined)  C-C chemokine receptor type 4 (Homo sapiens, UniProt P51679)            6.22
2  C[C@H](c1ccc(Cl)cc1Cl)n1nc(C#N)c2ncc(N3CC([C@H]4CCCN(CC#N)C4)C3)nc21  C-C chemokine receptor type 4 (Homo sapiens, UniProt P51679)            5.83

[1] Cc1nn([C@H](C)c2ccc(Cl)cc2Cl)c2nc(N3CC([C@H]4CCCN(CCC(F)(F)F)C4)C3)cnc12
[2] C[C@H](c1ccc(Cl)cc1Cl)n1nc(C#N)c2ncc(N3CC([C@H]4CCCN(CCC(=O)O)C4)C3)nc21
Pick one, 1 or 2 : lowest reported pIC50. Provide the label of your selected option as the answer. 1
(1: 6.30, 2: 7.33)

[P] COC(=O)NCCN1CCC[C@H](C2CN(c3cnc4c(C)nn([C@H](C)c5ccc(Cl)cc5Cl)c4n3)C2)C1
[Q] C[C@H](c1ccc(Cl)cc1Cl)n1nc(C(N)=O)c2ncc(N3CC([C@H]4CCCN(CCO)C4)C3)nc21
[R] Cc1nn([C@H](C)c2ccc(Cl)cc2Cl)c2nc(N3CC([C@H]4CCCN(CCS(N)(=O)=O)C4)C3)cnc12
[S] Cc1nn([C@H](C)c2ccc(Cl)cc2Cl)c2nc(N3CC([C@@H]4CCCN(CCS(N)(=O)=O)C4)C3)cnc12
Let's sort these by pIC50, smallest first. Go ahead? Rank them, then answer with their labels in that order. S, R, P, Q

[a] Cc1nn([C@H](C)c2ccc(Cl)cc2Cl)c2nc(N3CC([C@H]4CCCN(CCCC(=O)O)C4)C3)cnc12
[b] CNC(=O)c1nn([C@H](C)c2ccc(Cl)cc2Cl)c2nc(N3CC([C@H]4CCCN(CCO)C4)C3)cnc12
# argmax over pIC50 for candidates a and b Provide the label of your selected option as the answer. b

[1] Cc1nn([C@H](C)c2ccc(Cl)cc2Cl)c2nc(N3CC([C@H]4CCCN(CCC(=O)O)C4)C3)cnc12
[2] Cc1nn([C@H](C)c2ccc(Cl)cc2Cl)c2nc(N3CC([C@H]4CCCN(CCCS(C)(=O)=O)C4)C3)cnc12
Pick one, 1 or 2 : lowest reported pIC50. Provide the label of your selected option as the answer. 1
